- testTarget: Glutamine synthetase (GS) (Mus musculus, UniProt P15105, T301V)
- Construct: pET-24a(+) plasmid pNG189, codon optimised; E. coli BL21(DE3); HisTrap and Superdex 200; homomeric decamer
- Sequence (P15105 2-373 T301V): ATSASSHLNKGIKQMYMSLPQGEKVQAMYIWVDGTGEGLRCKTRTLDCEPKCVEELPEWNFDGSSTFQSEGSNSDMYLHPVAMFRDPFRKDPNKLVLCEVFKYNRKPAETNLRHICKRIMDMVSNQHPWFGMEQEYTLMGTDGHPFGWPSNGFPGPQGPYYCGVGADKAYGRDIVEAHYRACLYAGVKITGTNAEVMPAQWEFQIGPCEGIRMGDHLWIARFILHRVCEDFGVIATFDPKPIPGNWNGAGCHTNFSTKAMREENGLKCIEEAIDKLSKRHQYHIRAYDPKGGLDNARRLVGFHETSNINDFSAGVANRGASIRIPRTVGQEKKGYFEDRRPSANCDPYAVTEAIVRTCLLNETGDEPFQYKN
- assayText: gamma-glutamyl hydroxamate assay, absorbance […] nm
reportedEndpoint: IC50 (mM)
Provide only the numeric value, understood in mM.

Value lookup for IC50; key = CS(=N)(=O)CC[C@H](N)C(=O)O (stereo partly shown)
7.6

----------
- testTarget: Glutamine synthetase (GS) (Mus musculus, UniProt P15105, T301E)
- Construct: pET-24a(+) plasmid pNG189, codon optimised; E. coli BL21(DE3); HisTrap and Superdex 200; homomeric decamer
- Sequence (P15105 2-373 T301E): as the sequence (P15105 2-373 T301V) above, with V300E counted along it
- assayText: gamma-glutamyl hydroxamate assay, absorbance […] nm
reportedEndpoint: IC50

Value lookup for IC50; key = CS(=N)(=O)CC[C@H](N)C(=O)O (stereo partly shown) [methionine sulfoximine]
> 100 mM

// data source = paper PMC6536897
